Attribution: patent US20210030673A1

tested on: metastatic melanoma (WM-266-4) cells; test: Cytotoxicity assay of BA and BOA (Cell Counting Kit-8), WM-266-4; details: read-out: IC50-value, cell viability, WM-266-4; 48 h treatment, complete medium
quantity: pIC50
Note on units: pIC50 is unitless, being -log10 of a concentration expressed in mol/L.

[Q] Data request, read-out pIC50, for C=C(C)[C@@H]1CC[C@]2(C(=O)O)CC[C@]3(C)[C@H](CC[C@@H]4[C@@]5(C)CCC(=O)C(C)(C)[C@@H]5CC[C@]43C)[C@@H]12
[A] 4.40
